Procedure details: Stability as a function of buffer strength (1 mg/mL, citrate pH 3.0)
Format: physicochemical
Applied conditions: 20 mM; 60° C. 1 wk; unit assumed
Parameter: Impurities

• CCCNc1nc(NCCC)nc(N(C)OC)n1 = 0.58%

====

Procedure details: Stability as a function of buffer strength (1 mg/mL, citrate pH 3.0)
Format: physicochemical
Applied conditions: 10 mM; 60° C. 2 wk; unit assumed
Parameter: Impurities (%)

* CCCNc1nc(NCCC)nc(N(C)OC)n1 | 0.89

====

Procedure details: Solubility as a function of pH (100 mM citric acid, room temperature)
Assay type: physicochemical
Applied conditions: 100 mM citric acid buffer, aqueous buffer, thermodynamic from solid; target pH 5.0; final pH 4.52; read-out: (XXXVI) concentration
Parameter: solubility thermodynamic (µg/mL)

• CCCNc1nc(NCCC)nc(N(C)OC)n1.O=S(=O)(O)O [XXXVI, hydrogen sulfate] = 2730

====

Procedure details: pKa
Assay type: physicochemical
Parameter: pKa

- CCCNc1nc(NCCC)nc(N(C)OC)n1.O=S(=O)(O)O [XXXVI, hydrogen sulfate]: 5.6

====

Procedure details: Solubility as a function of pH (100 mM citric acid, room temperature)
Format: physicochemical
Applied conditions: 100 mM citric acid buffer, aqueous buffer, thermodynamic from solid; target pH 4.0; final pH 3.79; read-out: (XXXVI) concentration
Parameter: solubility thermodynamic (mg/mL)

• CCCNc1nc(NCCC)nc(N(C)OC)n1.O=S(=O)(O)O [XXXVI, hydrogen sulfate] = 20.8

====

Procedure details: Solubility as a function of pH (100 mM citric acid, room temperature)
Assay type: physicochemical
Applied conditions: pH 3.46, aqueous buffer, thermodynamic from solid
Parameter: solubility (mg/mL)

• CCCNc1nc(NCCC)nc(N(C)OC)n1 [XXXV] = 25

====

Reported values of MV DMV for individual entries
System: spontaneously breathing rats
Procedure details: Minute ventilation (MV) and cardiovascular parameters in naive rats
Assay type: in vivo, rat
Parameters: unit not given here
Applied conditions: Table 8; 1 mpk; 20% HPβCD; pH 4
Protocol: All surgical procedures were performed under anesthesia induced by 2% isoflurane in compressed medical grade air. With rats in supine position, the right femoral vein was catheterized using polyethylene tubing (PE-50). This catheter was used for fluid and drug administration. Simultaneously, the right femoral artery was also catheterized for monitoring blood pressure and heart rate. […]
Parameter: MV DMV

- CCCNc1nc(NCCC)nc(N(C)OCC2CC2)n1: 152
- CCCNc1nc(NCCC)nc(N(OCc2ccccc2)C(C)C)n1: 82
- CCCNc1nc(NCCC)nc(N(C)OCC(C)C)n1: 133
- CCCNc1nc(NCCC)c2c(n1)NCC2: 93
- CCCNc1nc(NN(C)C)c2ccn(C)c2n1: 83
- CON(C)c1nc(NCC(C)(C)C)nc(NCC(C)(C)C)n1.Cl: 43
- CCCNc1nc(NCCC)nc(N(C)OCc2cccs2)n1: 110
- CCCNc1nc(NCCC)nc(N(CC)OC(C)C)n1: 191
- COCCCNc1nc(NCCCOC)nc(N(C)OC)n1: 46

====

Procedure details: Solubility as a function of pH (100 mM citric acid, room temperature)
Format: physicochemical
Applied conditions: 100 mM citric acid buffer, aqueous buffer, thermodynamic from solid; target pH 5.5; final pH 5.02; read-out: (XXXVI) concentration
Parameter: solubility thermodynamic

- CCCNc1nc(NCCC)nc(N(C)OC)n1.O=S(=O)(O)O [XXXVI, hydrogen sulfate]: 990 µg/mL

====

Test system: spontaneously breathing rats
Procedure details: Minute ventilation (MV) and cardiovascular parameters in naive rats
Type: in vivo, rat
Set-up: unit not given here
Applied conditions: 1 mpk IV; 20% HPβCD; pH 4-6
Counter-ions that a name gives are not always drawn.
Parameter: MV ΔMV

- CCCNc1nc(NCCC)c2cc[nH]c2n1: 164
- CCCNc1nc(N(C)OC)c2cc[nH]c2n1: 163
- CCCNc1nc(NCC)nc(NOC)n1: 117
- CCCNc1nc(NCCC)nc(N(C)OCc2ccccc2)n1: 179
- CCCNc1nc(NCC2CC2)nc(N(C)OC)n1 [XXV, hydrochloride]: 126
- CCCNc1cc(N(C)OC)nc(NCCC)n1: 243
- CON(C)c1nc(NCC(C)C)nc(NCC(C)C)n1 [XXIX, hydrochloride]: 161
- CCNc1nc(NCC)nc(N(C)OC)n1 [XXII, hydrochloride]: 130
- CNc1nc(NC)nc(N(C)OC)n1 [XX, hydrochloride]: 60
- CON(C)c1nc(NC2CC2)nc(NC2CC2)n1 [XXXIII, hydrochloride]: 53

====

Procedure details: Solubility in solvents and IV solutions
Type: physicochemical
Applied conditions: water, thermodynamic from solid, Water; read-out: Solubility
Parameter: solubility

* CCCNc1nc(NCCC)nc(N(C)OC)n1.O=S(=O)(O)O | > 400 mg/mL

====

Procedure details: Solubility in solvents and IV solutions
Assay type: physicochemical
Applied conditions: saline or isotonic, thermodynamic from solid, 5% Dextrose; read-out: Solubility
Parameter: solubility

- CCCNc1nc(NCCC)nc(N(C)OC)n1.O=S(=O)(O)O [XXXVI]: > 201 mg/mL

====

Procedure details: Stability as a function of buffer strength (1 mg/mL, citrate pH 3.0)
Assay type: physicochemical
Applied conditions: 100 mM; 60° C. 1 wk; unit assumed
Parameter: Impurities (%)

* CCCNc1nc(NCCC)nc(N(C)OC)n1 | 0.73

====

System name: rat KCNK3/TASK-1 (Rattus norvegicus, UniProt O54912)
Sequence (O54912 whole entry): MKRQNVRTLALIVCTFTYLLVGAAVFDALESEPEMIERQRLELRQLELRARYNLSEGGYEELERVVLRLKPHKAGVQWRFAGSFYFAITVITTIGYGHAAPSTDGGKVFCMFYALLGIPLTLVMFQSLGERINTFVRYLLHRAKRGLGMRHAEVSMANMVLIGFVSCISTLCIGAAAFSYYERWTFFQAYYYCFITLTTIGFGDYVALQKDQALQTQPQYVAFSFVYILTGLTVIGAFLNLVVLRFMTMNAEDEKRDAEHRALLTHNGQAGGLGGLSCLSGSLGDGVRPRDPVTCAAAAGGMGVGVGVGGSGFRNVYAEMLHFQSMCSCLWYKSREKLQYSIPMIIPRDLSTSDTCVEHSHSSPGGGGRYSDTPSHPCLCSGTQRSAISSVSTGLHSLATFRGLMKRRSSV
Procedure details: Thallium flux through rat TASK-1 (KCNK3-CHO cells)
Applied conditions: Tl+ flux; 3 nM to 30 μM; read-out: rTASK-1 IC50
Parameter: IC50

- CCCNc1nc(NC)nc(NCCC)n1: 10 nM
- CCCNc1nc(NN(C)C)c2ccn(C)c2n1: 160 nM
- CCCNc1nc(NCCC)nc(N(C)OC)n1.O=S(=O)(O)O [XXXVI, hydrogen sulfate]: 25000 nM
